Below, each entry is listed alongside its reported H1.0 immunofluorescence intensity.
- System: TDF;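 note: TDF is a line of transformed human dermal fibroblasts of mesenchymal origin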
- Procedure text: H1.0 immunofluorescence intensity relative to DMSO (% of DMSO); higher = stronger H1.0 induction, active = 120 or more
- Test settings: concentration: 10 µM; 24 h
Metric name: H1.0 immunofluorescence intensity

INSERT INTO assay_data (compound, test_target, metric_name, value_reported) VALUES
  ('Cl.Cl.OCCN1CCN(CCC=C2c3ccccc3Sc3ccc(C(F)(F)F)cc32)CC1 [cis-(Z)-Flupenthixol dihydrochloride]', 'TDF', 'H1.0 immunofluorescence intensity', 102),
  ('CC1CC2C3CCC4=CC(=O)C=CC4(C)C3(F)C(O)CC2(C)C1(O)C(=O)CO (centres undefined)', 'TDF', 'H1.0 immunofluorescence intensity', 75.2),
  ('CCc1ccc(CCOc2ccc(CC3SC(=O)NC3=O)cc2)nc1 (centres undefined)', 'TDF', 'H1.0 immunofluorescence intensity', 94.2),
  ('O=c1[nH]c2ccccc2c2ccccc12', 'TDF', 'H1.0 immunofluorescence intensity', 93.8);
